Each recorded value in this set is attributed to PubChem BioAssay (NCI).

Tested on: SK-OV-3 ovarian
EXPERIMENT DESCRIPTION: NCI tumour cell line growth inhibition, 48 h
METRIC NAME: GI50

Study these solved cases before continuing.
COMPOUND | GI50
O=C(CCN1CCCC1)Nc1ccc2c(NCCc3ccccc3)c3ccccc3nc2c1 | 0.422 µM
O=C(Oc1ccccc1Cl)c1ccccc1Nc1cccc(C(F)(F)F)c1 | 47.5 µM
CCOC(=O)c1ccccc1SC(C[N+](=O)[O-])c1ccccc1 (stereo not given) | 12.7 µM
O=c1c2c(=NCCN3CCCC3)cc3c(=O)n(CCCN4CCOCC4)c(=O)c4ccc(c(O)n1CCCN1CCOCC1)c2c4-3 | 0.381 µM
CCCCCCCCNC(C)C(O)c1ccc(SC(C)C)cc1 (stereo not given) | 1.63 µM
CCSc1ccc([C@@H]2[C@@H](N)C(=O)N2c2cc(OC)c(OC)c(OC)c2)cc1 | 0.0545 µM
O=C(c1ccco1)c1nc2cc(C(F)(F)F)ccc2[n+]([O-])c1C(F)(F)F | > 100 µM
C[C@@H](Oc1cc(-n2cnc3ccc(OCC4CCN(C)CC4)cc32)sc1C(N)=O)c1ccccc1Cl | 0.101 µM

For every item in the list below, what is its measured GI50?
1. O=C(Cc1ccc(Nc2ccnc(C(F)(F)F)c2)cc1)Nc1cc(Cl)ccc1O
2. O=C(Nc1ccc(Oc2ccc(NC(=O)Nc3ccc([N+](=O)[O-])cc3)cc2)cc1)Nc1ccc([N+](=O)[O-])cc1

RESULT:
1. 15.8 µM
2. 2.27 µM
